- system tested: T1, cynomolgus FGFR3b expressed with a C-terminal myc-myc-hexahistidine tag (mfFGFR3b.mmH) (cynomolgus)
- T1 construct: The name states R357G; also called REGN3521; mf FGFR3b ecto (R357G) (E23-G377;R357G).mmH
- T1 chain: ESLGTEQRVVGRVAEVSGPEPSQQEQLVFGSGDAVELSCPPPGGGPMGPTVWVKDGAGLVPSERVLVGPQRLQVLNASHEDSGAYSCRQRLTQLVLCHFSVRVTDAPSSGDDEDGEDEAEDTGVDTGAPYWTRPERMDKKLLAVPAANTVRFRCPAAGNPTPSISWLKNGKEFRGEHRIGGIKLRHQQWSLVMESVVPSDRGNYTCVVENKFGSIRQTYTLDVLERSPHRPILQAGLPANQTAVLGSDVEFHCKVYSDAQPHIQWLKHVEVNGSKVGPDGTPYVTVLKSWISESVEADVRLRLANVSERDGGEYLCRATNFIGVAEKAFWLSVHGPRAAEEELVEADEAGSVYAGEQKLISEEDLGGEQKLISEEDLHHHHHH
- test name: SPR (Biacore), captured mAb, 25 C
Known t½ of a selection of binders
A number alone suffices; assume h.

H4H30071P (antibody, human IgG4 S228P, kappa, V domains shown) VH: QVQLQQSGPGLVKPSQTLSLTCAISGDSVSRNSAAWNWIRQSPSSGLEWLGRTYYRSKWFYDYAISVKSRITVNPDTSKNQFSLHLNSVTPEDTAVYYCARGYGGYEDYFDYWGQGTLVTVSS VL: DIQMTQSPSSVSASVGDRVTITCRASQGISSWLAWYQQKPGKAPKLLIYGASSLQSGVPSRFSGSGSGTDFTLTISSLQPEDFATYFCQQGSSFPYTFGQGTKLEIKR : 8.67

stdin: Fill in: t½ of H4H30076P (antibody, human IgG4 S228P, kappa, V domains shown) VH: EVQLVESGGGLVQPGGSLRLSCAASGFTVSSNYMSWVRQAPGKGLEWVSIIYSGGHTYYSDSVKGRFTISRHNSKNTLYLQMNSLRGGDTAVYYCARGYTSGWYGFDFWGQGTLVTVSS VL: DIQMTQSPSSVSASVGDRVTITCRASQGISTWLAWYQQKPGKAPKLLIYAASSLQSGVPSRFSGTGSGTDFTLTISSLQPEDFATYYCQQTNSFPWTFGQGTKVEIKR is ___
stdout: 5.84

stdin: // returns reported t½ for input H4H30045P (antibody, human IgG4 S228P, kappa, V domains shown) VH: QVQLVQSGAEVKKPGASVKVSCKTSGYRFVNYGFSWVRQAPGQGLEWMGWISPYNGNTNYIQNLQDRITMTTDTSTNTAYMELTNLRSDDTAVYYCATLTGVHFDYWGQGTLVTVSS VL: AIQMTQSPSSLSASVGDRVTITCRASQGIRNDLGWYQQKPGKAPNLLIFETSRLQSGVPSRFSGSGSGTDFTLTINSLQPEDFATYYCLQDYNYPWTFGQGTKVEIKR
stdout: 0.0217
